Study target: KRAS G12D (Homo sapiens (Human), UniProt P01116, G12D)
Sequence (P01116-2 other isoform, or with tags, fused parts or gaps G12D): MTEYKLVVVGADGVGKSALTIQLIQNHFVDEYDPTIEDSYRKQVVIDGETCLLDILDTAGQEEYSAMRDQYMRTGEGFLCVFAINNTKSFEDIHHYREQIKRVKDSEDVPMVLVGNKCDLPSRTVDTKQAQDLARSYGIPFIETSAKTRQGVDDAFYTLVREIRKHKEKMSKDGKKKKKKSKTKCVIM
Experiment notes: KRAS G12D LoEnz Biochemical Assay, BODIPY-GDP Exchange TR-FRET (SOS1-mediated nucleotide exchange)
Protocol conditions: read-out: KRas (G12D) GDP HTRF IC50
pIC50: −log10 of the molar value.
Form field: pIC50 (one value per entry).
Quantity: pIC50

INSERT INTO results (compound, result_number) VALUES
  ('Cc1nc(N)cc(-c2nc3c4c(nc(OCC56CCCN5CC(F)C6)nc4c2F)N2CC4CCC(N4)[C@H]2[C@@H](C(F)(F)F)O3)c1C(F)(F)F (stereo in doubt)', 6.24),
  ('Cc1c(F)c(N)cc(-c2nc3c4c(nc(OC[C@@]56CCCN5C[C@H](F)C6)nc4c2F)N2CCN[C@@H](C)[C@H]2[C@@H](C)O3)c1C(F)(F)F (single isomer, unassigned) [234 (isomer 2)]', 6.68),
  ('Cc1c(F)c(N)cc(-c2nc3c4c(nc(OC[C@@]56CCC[C@H]5N(C)CCC6)nc4c2F)N2C[C@H]4CC[C@H](N4)[C@H]2[C@H](C)O3)c1C(F)(F)F (single isomer, unassigned) [126 (isomer 3)]', 10.05),
  ('Cc1nc(N)cc(-c2nc3c4c(nc(OCC5(CN6C[C@@H]7C[C@H]6CO7)CC5)nc4c2F)N2C[C@H]4CC[C@H](N4)[C@H]2[C@H](C)O3)c1C(F)(F)F', 9.51),
  ('Cc1c(F)c(N)cc(-c2nc3c4c(nc(OC[C@@H]5C[C@@H](F)[C@H]6CCCN56)nc4c2F)N2C[C@H]4CC[C@H](N4)[C@H]2[C@H](C)O3)c1C(F)(F)F (single isomer, unassigned) [Compound 160 (diast. 1)]', 9.85),
  ('C#Cc1c(F)ccc2cc(N)cc(-c3nc4c5c(nc(OC[C@]67CCN6CC(F)(F)C7)nc5c3F)N3C[C@H]5CC[C@H](N5)[C@H]3[C@H](C)O4)c12', 9.82),
  ('Cc1c(F)c(N)cc(-c2nc3c4c(nc(OC[C@@H]5CCC6C[C@@H](C(=O)N(C)C)CCN65)nc4c2F)N2C[C@H]4CC[C@H](N4)[C@H]2[C@H](C)O3)c1C(F)(F)F (single isomer, unassigned) [133 (isomer 2)]', 9.82),
  ('C[C@@H]1Oc2nc(-c3cc(N)c(F)c(F)c3C(F)(F)F)c(F)c3nc(OC[C@@]45CCCN4C[C@H](F)C5)nc(c23)N2C[C@H]3CC[C@H](N3)[C@@H]12', 10.15),
  ('Cc1c(F)c(N)cc(-c2nc3c4c(nc(OC[C@@H]5C[C@@H](F)CN5C)nc4c2F)N2C[C@H]4CC[C@H](N4)[C@H]2[C@H](C)O3)c1C(F)(F)F', 9.59),
  ('Cc1cc(N)nc(-c2nc3c4c(nc(OC[C@@]56CCCN5CC5(CC5(F)F)C6)nc4c2F)N2C[C@H]4CC[C@H](N4)[C@H]2[C@H](C)O3)c1C(F)(F)F (stereo partly shown)', 9.35);

Hello, the source for this data is patent US20240025919A1, in case you need it.
